Target: Fibroblast growth factor receptor 2 (Homo sapiens, UniProt P21802)
Sequence (P21802 whole entry): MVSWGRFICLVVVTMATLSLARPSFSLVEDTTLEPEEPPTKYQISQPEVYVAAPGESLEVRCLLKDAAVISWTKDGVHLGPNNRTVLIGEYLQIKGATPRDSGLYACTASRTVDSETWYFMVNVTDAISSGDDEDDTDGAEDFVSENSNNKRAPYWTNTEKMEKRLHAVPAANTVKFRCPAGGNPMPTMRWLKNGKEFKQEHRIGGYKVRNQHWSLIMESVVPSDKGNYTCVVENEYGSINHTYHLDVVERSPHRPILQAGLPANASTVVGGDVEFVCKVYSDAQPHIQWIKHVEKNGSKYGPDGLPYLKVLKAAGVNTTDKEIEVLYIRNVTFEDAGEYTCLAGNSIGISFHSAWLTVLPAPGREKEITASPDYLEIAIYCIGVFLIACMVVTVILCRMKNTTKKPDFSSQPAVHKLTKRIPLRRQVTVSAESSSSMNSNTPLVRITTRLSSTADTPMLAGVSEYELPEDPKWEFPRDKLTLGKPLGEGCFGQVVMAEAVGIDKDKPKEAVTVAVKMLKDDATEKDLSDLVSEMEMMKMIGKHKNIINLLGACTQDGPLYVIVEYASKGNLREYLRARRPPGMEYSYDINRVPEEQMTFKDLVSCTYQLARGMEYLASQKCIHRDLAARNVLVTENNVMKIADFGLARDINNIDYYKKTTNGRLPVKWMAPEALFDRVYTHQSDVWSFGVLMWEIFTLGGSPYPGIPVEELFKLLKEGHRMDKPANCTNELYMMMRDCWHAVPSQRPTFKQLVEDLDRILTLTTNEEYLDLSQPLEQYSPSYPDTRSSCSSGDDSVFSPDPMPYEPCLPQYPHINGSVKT
endpoint label: pIC50
Keep in mind that pIC50 stands for -log10 of concentration in molar terms.

State its pIC50 on Fibroblast growth factor receptor 2 (Homo sapiens, UniProt P21802): C[C@@H](Oc1ccc2[nH]nc(-c3ccc(N4CC5(C4)CN(S(C)(=O)=O)C5)nc3)c2c1)c1c(Cl)cncc1Cl 8.15

###

Experiment: AUC (last) in monkey at 1 mg/kg, iv measured for 24 hrs by LC-MS/MS analysis
Type: ADME, organism-based, Macaca mulatta
Conditions: rhesus monkey, in vivo
endpoint label: AUC(0-t) at 24 h (ng·h/mL)
Enter your answer as a number in ng·h/mL; do not include the unit.

Recorded AUC(0-t) at 24 h for C[C@@H](Oc1ccc2[nH]nc(-c3ccc(N4CC5(C4)CN(S(C)(=O)=O)C5)nc3)c2c1)c1c(Cl)cncc1Cl , please? 1500
